biological target: NS5B from the BK strain (genotype 1b) (Hepatitis C virus genotype 1b, UniProt P26663); construct: NS5B from the BK strain (genotype 1b) is expressed in E. coli as a protein in which the 21 C-terminal amino acids are replaced; made in house; host or cells: E. coli; experiment: Hepatitis C polymerase inhibition, NS5B BK strain, 33P-GTP filter assay; assay type: biochemical; conditions: Table 1A; 20 μM compound; read-out: HCV pol % inh at 20 μM
Sequence (P26663 2420-2989): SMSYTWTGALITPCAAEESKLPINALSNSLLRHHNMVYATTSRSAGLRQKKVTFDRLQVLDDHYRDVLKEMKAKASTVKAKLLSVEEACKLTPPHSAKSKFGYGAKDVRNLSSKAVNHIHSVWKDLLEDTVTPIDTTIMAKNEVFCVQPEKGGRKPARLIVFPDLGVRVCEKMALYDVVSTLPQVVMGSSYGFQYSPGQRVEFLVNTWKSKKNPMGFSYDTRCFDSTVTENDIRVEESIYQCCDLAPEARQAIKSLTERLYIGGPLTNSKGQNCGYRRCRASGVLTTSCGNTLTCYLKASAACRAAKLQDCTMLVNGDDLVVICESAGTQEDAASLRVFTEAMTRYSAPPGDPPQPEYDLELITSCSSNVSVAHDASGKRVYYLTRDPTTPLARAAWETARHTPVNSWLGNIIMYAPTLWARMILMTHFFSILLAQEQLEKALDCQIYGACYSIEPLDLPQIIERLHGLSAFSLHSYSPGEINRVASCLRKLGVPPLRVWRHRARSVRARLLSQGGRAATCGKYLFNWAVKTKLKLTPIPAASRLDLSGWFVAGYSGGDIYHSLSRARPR
Measured metric: inhibition at 20 µM (%)
Report the figure in % without appending any unit label.

Worked set:
CCCC1(CC(=O)O)OCCc2c1[nH]c1cccc(-c3ccc4ccccc4c3)c21 (centres unmarked)    11
CCCCC1(CC(=O)O)OCCc2c1[nH]c1c(Cl)cc(Cl)c(Cl)c21 (centres unmarked)    91

The value of inhibition at 20 µM measured for the molecule CC(C)C1(CC(=O)O)OCCc2c1[nH]c1c(Cl)cc(Cl)cc21 (centres unmarked) turned out to be 51

The value of inhibition at 20 µM measured for the molecule N#Cc1cccc2[nH]c3c(c12)CCOC3(CC(=O)O)c1cccc([N+](=O)[O-])c1 (centres unmarked) turned out to be 27

The value of inhibition at 20 µM measured for the molecule COc1cc(C2(CC(=O)O)OCCc3c2[nH]c2cccc(C#N)c32)cc(OC)c1OC (centres unmarked) turned out to be 30

The value of inhibition at 20 µM measured for the molecule CC1(CC(=O)O)OCCc2c1[nH]c1c(Cl)cccc21 (centres unmarked) turned out to be 45

The value of inhibition at 20 µM measured for the molecule O=C(O)CC1(c2ccoc2)OCCc2c1[nH]c1c(Cl)ccc(C(F)(F)F)c21 (centres unmarked) turned out to be 81

* * *

Listing of entries alongside the reported pIC50.
Biological target: NS5B from the BK strain (genotype 1b) (Hepatitis C virus genotype 1b, UniProt P26663)
Construct: NS5B from the BK strain (genotype 1b) is expressed in E. coli as a protein in which the 21 C-terminal amino acids are replaced; made in house; host or cells: E. coli
Test: Hepatitis C polymerase inhibition, NS5B BK strain, 33P-GTP filter assay
Format: biochemical
Details: Table 1A; NS5B BK strain; read-out: HCV pol BK IC50
Text: The ability of the compounds of the present invention to inhibit Hepatitis C Polymerase was established by the following experimental procedure: • NS5B from the BK strain (genotype 1b) is expressed in E. coli as a protein in which the 21 C-terminal amino acids are replaced with a short linker and a hexahistidine tag ([…]). […] The radioactive product is captured on a filter and quantitated after removal of the unincorporated nucleotides. […]
pIC50: −log10 of the molar value.

Cc1cc(Cl)c2[nH]c3c(c2c1C#N)CCOC3(CC(=O)O)c1ccccc1 (stereo not drawn) [Example 187]    < 5.30

The value of pIC50 measured for the molecule CCCC1(CC(=O)O)OCCc2c1[nH]c1c(C)cc(F)c(Br)c21 (stereo not drawn) [Example 201] turned out to be 6.82

The value of pIC50 measured for the molecule O=C(O)CC1(c2ccc(C(=O)O)cc2)OCCc2c1[nH]c1c(Cl)ccc(Cl)c21 (stereo not drawn) [Example 57] turned out to be 5.52

* * *

target: NS5B from the BK strain (genotype 1b) (Hepatitis C virus genotype 1b); construct: NS5B from the BK strain (genotype 1b) is expressed in E. coli as a protein in which the 21 C-terminal amino acids are replaced; made in house; host or cells: E. coli; test: Hepatitis C polymerase inhibition, NS5B BK strain, 33P-GTP filter assay; type: biochemical; conditions: Table 1A; NS5B BK strain; read-out: HCV pol BK IC50
Measured metric: IC50

Worked set:
CCCC1(CC(=O)O)OCCc2c1[nH]c1cccc(-c3ccc(SC)cc3)c21 (stereo not drawn)    > 20 µM
CCCC1(CC(=O)O)OC(C)Cc2c1[nH]c1c(F)ccc(C#N)c21 (stereo not drawn)    8.9 µM
O=C(O)CC1(c2ccccc2)OCCc2c1[nH]c1c(Cl)cc(Cl)cc21 (stereo not drawn)    > 5 µM

The value of IC50 measured for the compound CCCCC1(CC(=O)O)OCCc2c1[nH]c1c(Cl)ccc(Cl)c21 (stereo not drawn) turned out to be 0.76 µM

The value of IC50 measured for the compound CCCC1(CC(=O)O)OCCc2c1[nH]c1cccc(-c3ccc(Cl)cc3Cl)c21 (stereo not drawn) turned out to be > 20 µM

# credit: patent US7217730B2
